Assay: Displacement of [3H]DADLE from delta opioid receptor in guinea pig brain membrane
Format: cell membranes, Cavia porcellus
recorded.endpoint: Ki (µM)
Note: unit µM is implicit; provide only the numeric part.

I am curious: what Ki value has been reported for O=C1CC[C@@]2(O)[C@H]3Cc4ccc(O)c5c4[C@@]2(CCN3CC2CC2)[C@H]1O5 [NALTREXONE] ?
0.0105

Hey, just so you know, these numbers are from ChEMBL document CHEMBL4014289.
